assay: Metabolic stability in human liver S9 fraction, HPLC; format: in vitro ADME; conditions: human, s9, pH 7.4, human liver S9 fraction, 37° C., after 24 hours; read-out: remaining amount after S9 fraction treatment
Non-standard residues stand in square brackets, D forms with d. Residues, ends and D or L forms follow the SMILES beside them. Nspe = C[C@H](NCC(=O)O)c1ccccc1; Nlys = NCCCCNCC(=O)O
measured_parameter: remaining at 24 h, 11.5 μM

Query: Write down remaining at 24 h, 11.5 μM measured for item C[C@@H](c1ccccc1)N(CC(N)=O)C(=O)CN(C(=O)CN(CCCCN)C(=O)CN(C(=O)CN(C(=O)CN(CCCCN)C(=O)CN(C(=O)CN(C(=O)CN(CCCCN)C(=O)CN(C(=O)CN(C(=O)CNCCCCN)[C@@H](C)c1ccccc1)[C@@H](C)c1ccccc1)[C@@H](C)c1ccccc1)[C@@H](C)c1ccccc1)[C@@H](C)c1ccccc1)[C@@H](C)c1ccccc1)[C@@H](C)c1ccccc1 [compound 1] (H-[Nlys][Nspe][Nspe][Nlys][Nspe][Nspe][Nlys][Nspe][Nspe][Nlys][Nspe][Nspe]-NH2)
Result: ≥ 60%
